measured target: T1, His-tagged recombinant mouse PD-L1 protein (Mus musculus, UniProt Q9EP73)
T1 construct: programmed death-ligand 1 (PD-L1, B7-H1, CD274), mouse; also called programmed death-ligand 1; B7-H1; source: bought: Sino Biological #50010-M08H
T1 sequence (Q9EP73 19-239): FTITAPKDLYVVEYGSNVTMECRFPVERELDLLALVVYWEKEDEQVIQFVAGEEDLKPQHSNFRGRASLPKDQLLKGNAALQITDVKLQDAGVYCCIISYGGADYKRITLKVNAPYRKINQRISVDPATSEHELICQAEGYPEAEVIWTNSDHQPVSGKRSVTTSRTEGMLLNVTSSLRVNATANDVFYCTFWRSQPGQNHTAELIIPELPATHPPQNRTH
assay name: SPR; His-tagged mouse or human PD-L1 immobilised on a CM5 chip (EDC/NHS, between 650 and 900 RU); purified Nbs, 9 dilutions, 120 sec binding, 160 sec dissociation; Biacore T200, 25°C, HBS (0.01 M HEPES pH 7.4, 0.15 M NaCl, 3 mM EDTA, 0.005% Tween 20); 1-to-1 fit; n = 1
measurement setup: both partners purified
Item-by-item account of Kd
Express your answer in nM, writing the number without its unit.

• Nb E2 (VHH, Nanobody from a dromedary immunised with RAW264.7 cells; recloned into pHEN6 for the C-terminal His6 tag; also called anti-PD-L1 Nb E2; source: E. coli fermentation cultures, purified; not shown: His6, C-terminal, kept) VHH: QVQLQESGGGLVQAGGSLRLSCATSGSIFSIISMGWYRQAPGKQRELVALVFRGGSTVYADSVKGRFTISGDIAKNTVYLQMDSLKPEDTAVYYCNVKSIGTAQYWGQGTQITVSS = 2.1

Just so you know, measured Kd for Nb E4 (VHH, Nanobody from a dromedary immunised with RAW264.7 cells; recloned into pHEN6 for the C-terminal His6 tag; also called anti-PD-L1 Nb E4; source: E. coli fermentation cultures, purified; not shown: His6, C-terminal, kept) VHH: QVQLQESGGGLVHPGGSLRLSCATSGSIFSIISMGWYRQAPGKQRELVALVFRGGSTVYADSVKGRFTISGDIAKSTVYLQMDSLKPEDTAVYYCNAKPIGTAQYWGQGTQVTVSS came out at 4

Just so you know, measured Kd for Nb C7 (VHH, Nanobody from a dromedary immunised with RAW264.7 cells; recloned into pHEN6 for the C-terminal His6 tag; also called anti-PD-L1 Nb C7; source: E. coli fermentation cultures, purified; not shown: His6, C-terminal, kept) VHH: QVQLQESGGGSVQAGESLTLSCTASGSSLSHKSVGWWRQTPGNQRELVALVASGNNTNYVDSVKGRFTVSRDNAKNTMYLQMNSLKPEDTAVYYCRILSVNGIWYWGQGTQVTVSS came out at 17

Just so you know, measured Kd for Nb C3 (VHH, Nanobody from a dromedary immunised with RAW264.7 cells; recloned into pHEN6 for the C-terminal His6 tag; also called anti-PD-L1 Nb C3; source: E. coli fermentation cultures, purified; not shown: His6, C-terminal, kept) VHH: QVQLQESGGGLVQTGGSLRLSCAASGSTVSSSMMAWWRQTPGNQRELVALVASGNNTNYVDSVKGRFTVSRDNAKNTMYLQMNSLKPEDTAVYYCRILSVNGIWYWGQGTQVTVSS came out at 0.5
